Tested System: hGPR17L-A131T (Homo sapiens, UniProt Q13304, A131T)
Construct: expressed in transfected cells; host or cells: HEK293 (ATCC CRL-1573), transient transfection
Sequence (Q13304 whole entry A131T): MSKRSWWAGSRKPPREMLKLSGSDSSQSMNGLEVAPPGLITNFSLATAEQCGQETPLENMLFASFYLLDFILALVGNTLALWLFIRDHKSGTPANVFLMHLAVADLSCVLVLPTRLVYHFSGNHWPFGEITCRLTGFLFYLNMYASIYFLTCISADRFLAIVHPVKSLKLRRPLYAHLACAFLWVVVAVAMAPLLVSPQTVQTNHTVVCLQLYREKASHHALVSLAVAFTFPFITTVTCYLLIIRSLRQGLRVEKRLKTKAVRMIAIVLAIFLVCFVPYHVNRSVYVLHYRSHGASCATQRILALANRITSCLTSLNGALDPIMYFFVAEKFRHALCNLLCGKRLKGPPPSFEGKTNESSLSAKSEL
Method Summary: GloSensor stimulatory cAMP assay with pertussis toxin pretreatment
Format: cell-based
Particulars: read-out: Stimulatory cAMP EC50
pEC50: −log10 of the molar value.
Readout Kind: pEC50

Smiles String	Readout Kind	Measurement
O=C(O)CCc1c(C(=O)O)[nH]c2cc(Cl)cc(Cl)c12	pEC50	4.72

====

Tested System: hGPR17L-G354V-Tango (Homo sapiens, UniProt Q13304, G354V)
Construct: Tango fusion module
Sequence (Q13304 whole entry G354V, the tested form may be a part): as the sequence (Q13304 whole entry A131T) above, with T131A, G354V counted along it
Method Summary: Tango β-arrestin recruitment assay
Particulars: read-out: β-arrestin recruitment EC50, HTLA cells
Readout Kind: EC50 (nM)

Smiles String	Unit Label	Measurement
O=C(O)CCc1c(C(=O)O)[nH]c2cc(Cl)cc(Cl)c12	nM	110
